Tested on: HMLE_sh_eGFP viability, CellTiter-Glo luminescence, 72 h
Test: cytotoxicity in HMLE control line with eGFP shRNA, dose response, counter-screen for HMLE_sh_ECad selective toxicity project, cell-based, HMLE_sh_eGFP, luminescence (AID 463074);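 also: counterscreen control line to flag general toxicity for the HMLE_sh_ECad screen; potency for loss of viability as luminescence drops below DMSO wells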
Would you mind telling me the reported AC50 of each entry?

Q: Which AC50 is listed for `CC(C)=CCc1c(O)c(CC=C(C)C)c2occ(-c3ccc(O)cc3)c(=O)c2c1O` ?
A: 3.49 µM

Q: Also, `CCOc1ccc(C(=O)CCC(=O)N2CCN(c3ccc(O)cc3)CC2)cc1` please.
A: 2.49 µM

Q: // query: `O=C(Nc1ccc2c(c1)OCO2)c1ccc(COc2ccc3c(c2)CCC3)o1`
A: 6.25 µM

Q: Proceed to `C/C(=N\Nc1cc(N2CCCCC2)nc(C)n1)c1ccc(Br)cc1`
A: 5.82 µM

Q: And `CCc1c(C)sc2nc(C(C)C)nc(SCC(=O)N3CCc4ccccc4C3)c12` ?
A: 4.22 µM

Q: Another compound to check: `CCn1c2ccccc2c2cc(NC(=O)c3cccc([N+](=O)[O-])c3)ccc21`
A: 3.63 µM

Q: Cool, now `CSc1c(SCc2ccccc2)cnn(-c2ccccc2)c1=O`
A: 5.71 µM

Q: Check `CCOC(=O)/C(=C\c1ccc(Cl)cc1)c1nc2sc(C)c(C)c2c(=O)[nH]1` too.
A: 1.54 µM

Q: Here is the next compound: `CCN1CCN(C(=O)c2ccc(CSc3ccc(C)cc3)cc2)CC1`
A: 0.22 µM

Q: Can you check `O=C(CCSc1ccc(Cl)cc1)N1CCN(c2ccc(O)cc2)CC1` next?
A: 1.48 µM

----------
Kindly state AC50 for each of the entries shown.
Test system: HMLE_sh_eGFP viability, CellTiter-Glo luminescence, 72 h
Experiment: cytotoxicity in HMLE control line with eGFP shRNA, dose response, counter-screen for HMLE_sh_ECad selective toxicity project, cell-based, HMLE_sh_eGFP, luminescence (AID 463074)
Activity calls are given as the source filed them.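 Rule for the calls: active = AC50 no more than tenfold above the top dose tested, or full inhibition at every dose with a flat fit (cut at about 19 µM in these data); inconclusive = flat curve fit with inhibition between 30% and 70%, or poor fit; inactive = AC50 more than tenfold above the top dose tested.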

Q: Need AC50 of `Cc1cccc(OCCNC(=O)c2cccc(Oc3ccc(C(F)(F)F)cc3[N+](=O)[O-])c2)c1` , thanks.
A: 6.38 µM

Q: Next entry: `CCN(CC)c1ccc(C(=O)OCc2cc(=O)oc3cc(O)ccc23)cc1`
A: 16.2 µM

Q: What about `O=C(N/N=C(\Cc1ncc[nH]1)c1ccccc1)c1ccncc1` ?
A: 3.85 µM

Q: For `Clc1ccc(N/N=C/c2cccnc2)cc1` then?
A: 7.94 µM

Q: Repeat with `CCc1ccc(Nc2nc(N)nc(CSc3nc4ccccc4s3)n2)cc1`
A: > 19.5 µM (inactive)

Q: And what about the compound `CCCCCC(=O)Nc1nc(C)c(-c2csc(Nc3cc(OC)ccc3OC)n2)s1` ?
A: 2.11 µM

Q: Do the same for `O=C(N/N=C/c1cn(-c2cccs2)nc1-c1ccccc1)c1ccc(O)cc1` please
A: 7.76 µM

Q: Entry `Cc1cc(=O)[nH]c(N/N=C/c2ccc(-c3ccc(F)cc3)o2)n1` please
A: 18.1 µM

Q: Would you mind doing `Cc1nc2ccc(Br)cn2c1C(=O)N/N=C\c1ccc(C(C)C)cc1` as well?
A: 4.34 µM

Q: And what about the compound `CSc1nc2sc3c(c2c(=O)n1CC(C)C)CC(C)(C)OC3` ?
A: < 0.16 µM

Q: Lookup `CCOC(=O)c1nn(-c2ccc(F)cc2)c(-c2ccccc2)c1C(=O)c1ccccc1`
A: 11.8 µM

Q: # repeat for `Cc1ccc(-c2ccc([C@H]3[C@@H]4C=CCC[C@@]4(C)C(=O)N3Cc3ccccc3)c(F)c2)cc1`
A: 5.32 µM

Q: // repeat for `OC1CCN(c2cc(-c3ccccc3)nc3cc(-c4ccc(F)cc4)nn23)CC1` and report
A: 7.31 µM

Q: `O=C(N/N=C/c1cc(Br)ccc1O)C(=O)Nc1ccccc1OC(F)(F)C(F)F` ?
A: 3.6 µM

Q: Next compound: `CCN(CC)CCCNC(=S)N1CCN(c2nc(-c3ccc(F)cc3)cs2)CC1`
A: 2.44 µM

Q: Quick one: Cc1ccc(Cl)cc1N1CCN(CC(=O)NC2CCCc3ccccc32)CC1 (stereo unspecified)
A: 6.66 µM

Q: Input `CCCc1c(-c2ccc(O)cc2)nn(-c2ccc(O)cc2)c1-c1ccc(O)cc1`
A: 6.1 µM

Q: Proceed to `O=c1[nH]c(/C(Cl)=C/c2cc(Cl)ccc2O)nc2cc(Cl)ccc12`
A: 2.37 µM

Q: And the next one, `Cc1ccc(C(=O)ONc2ccc(N=NC(=O)c3ccccc3O)cc2)cc1` ?
A: 3.56 µM

Q: Similarly, `CN1CCN(c2ccc(S(=O)(=O)N3CCCCC3)cc2NC(=O)/C=C/c2ccc(Cl)c([N+](=O)[O-])c2)CC1` ?
A: 4.42 µM

Q: And `CCCCN(CC)S(=O)(=O)c1ccc(C(=O)N(CCCN(C)C)c2nc3cc(C)cc(C)c3s2)cc1` ?
A: 7.21 µM

----------
Tested on: HMLE_sh_eGFP viability, CellTiter-Glo luminescence, 72 h
Assay: cytotoxicity in HMLE control line with eGFP shRNA, dose response, counter-screen for HMLE_sh_ECad selective toxicity project, cell-based, HMLE_sh_eGFP, luminescence (AID 463074);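 also: counterscreen control line to flag general toxicity for the HMLE_sh_ECad screen; potency for loss of viability as luminescence drops below DMSO wells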
OBSERVED PROPERTY: AC50

Q: What does the record list as AC50 for Cc1ncc(CN2CCCC(C(=O)Nc3ccc(-c4cccc(F)c4)cc3)C2)s1 (stereo not given) ?
A: 11.7 µM

Q: For `Cc1nn(-c2ccc(F)cc2)c(Cl)c1/C=C1\C(=O)Nc2ccccc21` then?
A: 2.34 µM

Q: Consider next the compound `Cc1cc(C)nc(SCc2ccc(C(=O)N/N=C/c3cccc(O)c3O)cc2)n1` in the same way.
A: 3.71 µM

Q: Then `CCOc1cc(S(=O)(=O)Nc2ccc(CC)cc2)ccc1Cl` ?
A: 7.02 µM

Q: // same read-out, input: `c1ccc(-c2c(-c3ccccc3)n(Cc3ccco3)c3ncnc(NCCCn4ccnc4)c23)cc1`
A: 6.74 µM

----------
System: HMLE_sh_eGFP viability, CellTiter-Glo luminescence, 72 h
Assay: cytotoxicity in HMLE control line with eGFP shRNA, dose response, counter-screen for HMLE_sh_ECad selective toxicity project, cell-based, HMLE_sh_eGFP, luminescence (AID 463074);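 also: counterscreen control line to flag general toxicity for the HMLE_sh_ECad screen; potency for loss of viability as luminescence drops below DMSO wells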
OBSERVED PROPERTY: AC50

Q: Which AC50 is reported for this compound? `COc1ccc(-c2cn[nH]c2-c2ccc(OCc3ccccc3)cc2O)cc1`
A: 7.02 µM

Q: Can you handle `CN(Cc1cnc2nc(N)nc(N)c2n1)c1ccc(C(=O)N[C@@H](CCC(=O)O)C(=O)O)cc1` next?
A: < 0.16 µM

Q: Same read-out for COc1cc(C(=O)OC2CC3CCC2(C)C3(C)C)ccc1OC(C)=O (stereo not given) ?
A: 6.46 µM

Q: Cool, now `CCN(c1ccccc1)c1nc(C#N)nc(N(CC)c2ccccc2)n1`
A: 7.07 µM

Q: Item: `C[C@@H]1CCC(=O)N(CC[C@H](Sc2ccc(Br)cc2)c2ccccc2)CC1`
A: 5.66 µM

Q: Now consider `O=C1C(Cl)=C(Nc2ccccc2)C(=O)c2ccccc21` and answer again.
A: 2.19 µM

Q: Also `COc1ccc(-c2sc3ccccc3c2-c2ccc(OCCN(C)C)cc2)cc1` ?
A: 3.38 µM

Q: And then `CCOc1ccc(S(=O)(=O)N2CCN=C2c2ccccc2)cc1` , what is it?
A: 3.1 µM

Q: Same thing, different compound: `CCOc1ccc(N/C(N)=N/c2nc(CSc3nnc(C)s3)cc(=O)[nH]2)cc1`
A: 0.609 µM

Q: Entry to check: `Cc1cc(C)nc(NC(=O)/C=C/c2ccc3c(c2)OCO3)c1`
A: 2.8 µM

----------
Hi there, I'd appreciate the recorded AC50 for every entry that follows.
Test system: HMLE_sh_eGFP viability, CellTiter-Glo luminescence, 72 h
Experiment: cytotoxicity in HMLE control line with eGFP shRNA, dose response, counter-screen for HMLE_sh_ECad selective toxicity project, cell-based, HMLE_sh_eGFP, luminescence (AID 463074);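 also: counterscreen control line to flag general toxicity for the HMLE_sh_ECad screen; potency for loss of viability as luminescence drops below DMSO wells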

Q: So what's the measured AC50 for this one? `COc1cccc(-c2sc3ccccc3c2-c2ccc(OCCN(C)C)cc2)c1`
A: 3.34 µM

Q: Please give the result for `O=c1[nH]c(CN2CC=C(c3ccccc3)CC2)nc2scc(-c3ccccc3)c12` too.
A: 5.19 µM

Q: Next compound: O=C(Nc1ccc(Oc2c(F)c(F)c(F)c(F)c2F)cc1)OC1CCN2Cc3ccccc3N=C12 (stereo not given)
A: 1.21 µM

Q: Could you do the same for CCCCC1CCC(C(=O)N(CC(C)C)c2c(N)n(Cc3ccccc3)c(=O)[nH]c2=O)CC1 (stereo not given) , please?
A: 4.62 µM

Q: Next: `O=C(NC(=O)N1CCN(c2cccc(Cl)c2)CC1)c1ccc(Cl)cc1`
A: 0.573 µM

Data origin: PubChem BioAssay AID463074
